The origin of these recorded values is paper PMC9352680.

Biological target: T1, PUF4 RNA-binding domain (Saccharomyces cerevisiae, UniProt P25339 537-888)
T1 sequence: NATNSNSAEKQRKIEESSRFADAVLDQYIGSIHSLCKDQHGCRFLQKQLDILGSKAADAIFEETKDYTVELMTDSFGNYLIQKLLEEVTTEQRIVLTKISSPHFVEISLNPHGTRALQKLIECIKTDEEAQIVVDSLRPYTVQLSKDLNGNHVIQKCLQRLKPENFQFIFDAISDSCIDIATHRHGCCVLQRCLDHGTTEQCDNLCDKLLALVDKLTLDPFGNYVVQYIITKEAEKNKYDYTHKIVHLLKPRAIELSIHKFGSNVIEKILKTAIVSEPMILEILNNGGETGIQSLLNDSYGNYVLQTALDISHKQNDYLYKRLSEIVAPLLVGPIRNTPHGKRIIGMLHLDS
Assay: Mg; RNA-MaP; 20 mM Na-HEPES pH 7.4, 30 mM KOAc, 0.75 mM MgCl2, 0.1% Tween-20, 5% glycerol, 0.1 mg/mL BSA, 2 mM DTT; 25 C; 0.0125-409.6 nM protein
Conditions: tags: N-His6-TEV cleaved; C-SNAP kept, Cy3B-labelled; label: tethered on chip by stalled RNA polymerase
Criterion: Kd strictly under 500 nM. Met: true (1). Not met: false (0).

INSERT INTO assay_data (binder, answer_label) VALUES
  ('Id_ii_S2_P5E.3_K5.2_C5.2_[C-2A]_H5.2_A5.1_F5.1_T5.2_[T11C] (ssRNA) RNA: UUUGAUUAAUAUGAUAUCGUUCUUUCUAUUAUAUUAUUACAUUCUUUCUCGAUAUCAUAUUAAUCUUU', 'true (1)'),
  ('ACAAACCUUAUAUUAUUAGAACAAAC (ssRNA) [Id_ii_S3_P5E.3_K5.2_C5.2_H5.2_A5.1_F5.1_T5.2_[T11G]]', 'true (1)'),
  ('UCUCUUUCUGUAUAUUAACUCUCUU (ssRNA) [Id_ii_S1_P4E.2_K4.1_C4.2_[C-2T]_[T-1C]_H4.1_A4.1_F4.1_T4.2_[G10A]_[T11C]]', 'true (1)'),
  ('UCUCUUCGUACAUUAUCUCUU (ssRNA) [Ib_S1_P4E.1_K4.1_C4.1_H4.1_[T1C]_A4.1_[T5C]_F4.1_T4.1]', 'true (1)'),
  ('Id_ii_S4_P3E.2_K3.1_C3.2_[C-2G]_[T-1G]_H3.1_A3.1_F3.1_T3.2_[T9A]_[A10T] (ssRNA) RNA: UUUGACAACUGAUCGUUCUUUCUGGUGUAUAUAAUUUCUUUCUCGAUCAGUUGUCUUU', 'true (1)');

// query Answer whether the binder ACAAACUCCACACUAUUAGUACAAAC (ssRNA) [Id_iii_S3_P4E.7_K4.3_C4.3_[T-1C]_H4.3_A4.1_F4.1_T4.2] has Kd strictly less than 500 nM
// result false (0)

// query Answer whether the binder Ic_S4_P5E.1_K5.1_C5.1_H5.1_A5.1_[T5C]_[T6G]_[A7C]_F5.1_[T8A]_[T9G]_[A10C]_T5.1 (ssRNA) RNA: UUUGACAACUGAUCGUUCUUUCUUGUACGCAGCUUCUUUCUCGAUCAGUUGUCUUU has Kd strictly less than 500 nM
// result false (0)

// query Answer whether the binder UCUCUUUGUAUCGAUCUCUCUU (ssRNA) [Ic_S1_P5E.1_K5.1_C5.1_H5.1_A5.1_[T6C]_[A7G]_F5.1_[T8A]_[A10C]_T5.1] has Kd strictly less than 500 nM
// result false (0)

// query Answer whether the binder ACAAACUCUAUAAUUAACAAAC (ssRNA) [Ib_S3_P5E.1_K5.1_C5.1_H5.1_[G2C]_A5.1_[T6A]_F5.1_T5.1] has Kd strictly less than 500 nM
// result false (0)

// query Answer whether the binder UCUCUUUUUAUACUAUCUCUU (ssRNA) [Ib_S1_P4E.1_K4.1_C4.1_H4.1_[G2T]_A4.1_[T7C]_F4.1_T4.1] has Kd strictly less than 500 nM
// result false (0)

// query Answer whether the binder Ie_S2_P4E.1_K4.1_C4.1_H4.1_A4.1_[+7CTCTC]_F4.1_T4.1 (ssRNA) RNA: UUUGAUUAAUAUGAUAUCGUUCUUUCUUGUAUAUCUCUCUAUUCUUUCUCGAUAUCAUAUUAAUCUUU has Kd strictly less than 500 nM
// result true (1)

// query Answer whether the binder Ic_S4_P4E.1_K4.1_C4.1_H4.1_A4.1_[T5A]_[T7C]_F4.1_[T8C]_[A9C]_T4.1 (ssRNA) RNA: UUUGACAACUGAUCGUUCUUUCUUGUAAACCCUUCUUUCUCGAUCAGUUGUCUUU has Kd strictly less than 500 nM
// result true (1)

// query Answer whether the binder Id_ii_S4_P3E.2_K3.1_C3.2_[C-2T]_[T-1C]_H3.1_A3.1_F3.1_T3.2_[T9C]_[A10T] (ssRNA) RNA: UUUGACAACUGAUCGUUCUUUCUUCUGUAUAUACUUUCUUUCUCGAUCAGUUGUCUUU has Kd strictly less than 500 nM
// result true (1)

// query Answer whether the binder UCUCUUUGUACGUAGUCUCUU (ssRNA) [Ic_S1_P4E.1_K4.1_C4.1_H4.1_A4.1_[T5C]_[A6G]_F4.1_[T8A]_[A9G]_T4.1] has Kd strictly less than 500 nM
// result true (1)

// query Answer whether the binder UCUCUUUUUAUAUAUACGUCUCUU (ssRNA) [Id_ii_S1_P3E.3_K3.2_C3.2_[C-2T]_H3.2_A3.1_F3.1_T3.2_[T9C]_[A10G]] has Kd strictly less than 500 nM
// result false (0)

// query Answer whether the binder UCUCUUUGUAAGCCAUUCUCUU (ssRNA) [Ic_S1_P5E.1_K5.1_C5.1_H5.1_A5.1_[T5A]_[T6G]_[A7C]_F5.1_[T8C]_[T9A]_[A10T]_T5.1] has Kd strictly less than 500 nM
// result true (1)
